# credit: PubChem BioAssay AID1963829

So I've got a bunch of molecules here, and I need their viability, T/C values.
tested on: 935938-334-R-J1-PDC complex spheroid viability; assay: Anticancer human tumor 935938-334-R-J1-PDC patient-derived small intestine adenocarcinoma cell line growth inhibition [POLQ]; settings: second compound 10 µM; first compound 1 µM; stronger effect = lower value;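 further: spheroids exposed to drugs for seven days before viability read; 100% = DMSO vehicle control wells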
Supply the numeric figure in %, leaving out any unit text.

Prompt: Look at this molecule and give its reported viability, T/C. CC1COCCN1c1cc(C2(O)CC3CCC(C2)O3)c2cnn(-c3ccn[nH]3)c2n1 (stereo unspecified) + COC1C(OC(N)=O)C(O)C(Oc2ccc3c(O)c(NC(=O)c4ccc(O)c(CC=C(C)C)c4)c(=O)oc3c2C)OC1(C)C
Response: 16.6

Prompt: // same read-out, input: Nc1ccn(C2OC(CO)C(O)C2(F)F)c(=O)n1 (stereo unspecified) + Cc1cccc(N(C)C(=O)C2C(O)CCN2c2nc(C)cc(C(F)(F)F)c2C#N)c1
Response: 23.3

Prompt: // same read-out, input: O=c1[nH]cc(F)c(=O)[nH]1 + COC1C(OC(N)=O)C(O)C(Oc2ccc3c(O)c(NC(=O)c4ccc(O)c(CC=C(C)C)c4)c(=O)oc3c2C)OC1(C)C
Response: 67.3

Prompt: // same read-out, input: CNCc1ccc(-c2[nH]c3cc(F)cc4c3c2CCNC4=O)cc1 + COC1C(OC(N)=O)C(O)C(Oc2ccc3c(O)c(NC(=O)c4ccc(O)c(CC=C(C)C)c4)c(=O)oc3c2C)OC1(C)C
Response: 94.4

Prompt: // same read-out, input: O=C(c1cc(Cc2n[nH]c(=O)c3ccccc23)ccc1F)N1CCN(C(=O)C2CC2)CC1 + Cc1cccc(N(C)C(=O)C2C(O)CCN2c2nc(C)cc(C(F)(F)F)c2C#N)c1
Response: 88.2

Prompt: // same read-out, input: O=c1[nH]cc(F)c(=O)[nH]1 + Nc1ccc(C#CCN(C(=O)Cc2ncc(C(F)(F)F)cc2C(F)(F)F)c2ccc(F)cc2)nn1
Response: 58.3

Prompt: // same read-out, input: Nc1ccn(C2OC(CO)C(O)C2(F)F)c(=O)n1 (stereo unspecified) + Nc1ccc(C#CCN(C(=O)Cc2ncc(C(F)(F)F)cc2C(F)(F)F)c2ccc(F)cc2)nn1
Response: 20.6

Prompt: // same read-out, input: CCc1cc2c(N3CCc4c(cc(Cn5ccnc5)cc4-c4cn(C)nc4C(F)(F)F)C3=O)cc(C)nc2c(OC)n1 + Cc1cccc(N(C)C(=O)C2C(O)CCN2c2nc(C)cc(C(F)(F)F)c2C#N)c1
Response: 49.5

Prompt: // same read-out, input: CC1COCCN1c1cc(C2(S(C)(=N)=O)CC2)nc(-c2ccnc3[nH]ccc23)n1 (stereo unspecified) + COC1C(OC(N)=O)C(O)C(Oc2ccc3c(O)c(NC(=O)c4ccc(O)c(CC=C(C)C)c4)c(=O)oc3c2C)OC1(C)C
Response: 58.1

Prompt: // same read-out, input: CCc1c2c(nc3ccc(O)cc13)-c1cc3c(c(=O)n1C2)COC(=O)[C@]3(O)CC + COC1C(OC(N)=O)C(O)C(Oc2ccc3c(O)c(NC(=O)c4ccc(O)c(CC=C(C)C)c4)c(=O)oc3c2C)OC1(C)C
Response: 31.3

Prompt: // same read-out, input: CC1COCCN1c1cc(-c2ccnn2C)c2ccnc(-c3ccn[nH]3)c2n1 (stereo unspecified) + Cc1cccc(N(C)C(=O)C2C(O)CCN2c2nc(C)cc(C(F)(F)F)c2C#N)c1
Response: 18.4

Prompt: // same read-out, input: CCc1cc2c(N3CCc4c(cc(Cn5ccnc5)cc4-c4cn(C)nc4C(F)(F)F)C3=O)cc(C)nc2c(OC)n1 + COC1C(OC(N)=O)C(O)C(Oc2ccc3c(O)c(NC(=O)c4ccc(O)c(CC=C(C)C)c4)c(=O)oc3c2C)OC1(C)C
Response: 71.5

Prompt: // same read-out, input: CCCS(=O)(=O)Nc1ccc(F)c(C(=O)c2c[nH]c3ncc(-c4ccc(Cl)cc4)cc23)c1F + Nc1ccc(C#CCN(C(=O)Cc2ncc(C(F)(F)F)cc2C(F)(F)F)c2ccc(F)cc2)nn1
Response: 174

Prompt: // same read-out, input: Nc1ccn(C2OC(CO)C(O)C2(F)F)c(=O)n1 (stereo unspecified) + COC1C(OC(N)=O)C(O)C(Oc2ccc3c(O)c(NC(=O)c4ccc(O)c(CC=C(C)C)c4)c(=O)oc3c2C)OC1(C)C
Response: 14.4

Prompt: // same read-out, input: O=C(Nc1ccc(O)c(NS(=O)(=O)c2ccc(F)cc2)c1)c1ccc(-c2ccccc2)cc1 + Cc1cccc(N(C)C(=O)C2C(O)CCN2c2nc(C)cc(C(F)(F)F)c2C#N)c1
Response: 100

Prompt: // same read-out, input: CC1COCCN1c1cc(-c2ccnn2C)c2ccnc(-c3ccn[nH]3)c2n1 (stereo unspecified) + Nc1ccc(C#CCN(C(=O)Cc2ncc(C(F)(F)F)cc2C(F)(F)F)c2ccc(F)cc2)nn1
Response: 18.4

Prompt: // same read-out, input: C#Cc1c(F)ccc2cc(O)cc(-c3ncc4c(N5CC6CCC(C5)N6)nc(OCC56CCCN5CC(F)C6)nc4c3F)c12 (stereo unspecified) + Nc1ccc(C#CCN(C(=O)Cc2ncc(C(F)(F)F)cc2C(F)(F)F)c2ccc(F)cc2)nn1
Response: 63.6

Prompt: // same read-out, input: COc1cccc2c1C(=O)c1c(O)c3c(c(O)c1C2=O)CC(O)(C(=O)CO)CC3OC1CC(N)C(O)C(C)O1 (stereo unspecified) + Nc1ccc(C#CCN(C(=O)Cc2ncc(C(F)(F)F)cc2C(F)(F)F)c2ccc(F)cc2)nn1
Response: 18.9

Prompt: // same read-out, input: CCCS(=O)(=O)Nc1ccc(F)c(C(=O)c2c[nH]c3ncc(-c4ccc(Cl)cc4)cc23)c1F + Cc1cccc(N(C)C(=O)C2C(O)CCN2c2nc(C)cc(C(F)(F)F)c2C#N)c1
Response: 146

Prompt: // same read-out, input: COc1ccc([C@@H](O)c2cc(-c3ncnc4cc(N5CCOCC5)ccc34)c(F)cc2Cl)nn1 + Cc1cccc(N(C)C(=O)C2C(O)CCN2c2nc(C)cc(C(F)(F)F)c2C#N)c1
Response: 59.9

Prompt: // same read-out, input: COc1ccc([C@@H](O)c2cc(-c3ncnc4cc(N5CCOCC5)ccc34)c(F)cc2Cl)nn1 + Nc1ccc(C#CCN(C(=O)Cc2ncc(C(F)(F)F)cc2C(F)(F)F)c2ccc(F)cc2)nn1
Response: 60.5
